# systemUnderTest: TBK1 (Homo sapiens, UniProt Q9UHD2)
# Construct: TBK1 and IKKε were expressed and purified as full length recombinant proteins
# Sequence (Q9UHD2 whole entry): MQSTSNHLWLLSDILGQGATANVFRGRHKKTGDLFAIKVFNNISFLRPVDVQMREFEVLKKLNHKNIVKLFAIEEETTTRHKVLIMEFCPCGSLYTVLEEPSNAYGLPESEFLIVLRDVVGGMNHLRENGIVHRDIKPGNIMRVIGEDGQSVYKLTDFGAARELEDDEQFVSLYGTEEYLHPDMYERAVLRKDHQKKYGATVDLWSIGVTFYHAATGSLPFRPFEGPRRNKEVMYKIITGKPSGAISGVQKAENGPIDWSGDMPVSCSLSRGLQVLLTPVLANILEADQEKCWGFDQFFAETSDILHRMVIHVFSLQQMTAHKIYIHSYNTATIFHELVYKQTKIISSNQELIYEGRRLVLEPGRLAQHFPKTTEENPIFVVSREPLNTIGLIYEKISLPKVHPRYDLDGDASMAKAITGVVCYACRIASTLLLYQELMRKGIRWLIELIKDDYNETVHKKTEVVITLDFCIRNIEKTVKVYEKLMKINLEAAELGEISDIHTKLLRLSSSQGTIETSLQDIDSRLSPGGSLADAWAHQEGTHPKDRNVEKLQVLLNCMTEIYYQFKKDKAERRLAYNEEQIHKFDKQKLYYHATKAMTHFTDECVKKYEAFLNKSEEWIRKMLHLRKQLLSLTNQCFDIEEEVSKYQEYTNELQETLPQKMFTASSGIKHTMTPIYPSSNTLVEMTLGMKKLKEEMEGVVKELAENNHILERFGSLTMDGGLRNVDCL
# assayInfo: TR-FRET enzymatic activity assay, TBK1; also: full length recombinant TBK1 at 2.5 nM
pIC50: −log10 of the molar value.
Returns satisfied if the recorded pIC50 is greater than or equal to 7, and not satisfied otherwise.

compound: CC1(C)C[C@@H]1C(=O)Nc1cc(-c2ccc(O[C@H]3CCN(C(=O)CO)C[C@H]3F)c(C#N)c2)ccn1
systemUnderTest: TBK1 (Homo sapiens, UniProt Q9UHD2)
assignedClass: satisfied

compound: N#CCC(=O)N1CC[C@H](Oc2ccc(-c3cc(NC(=O)C4CC4)ncn3)cc2C#N)C(F)(F)C1
systemUnderTest: TBK1 (Homo sapiens, UniProt Q9UHD2)
assignedClass: satisfied

compound: N#Cc1cc(-c2cc(NC(=O)C3CC3)ncn2)ccc1F
systemUnderTest: TBK1 (Homo sapiens, UniProt Q9UHD2)
assignedClass: not satisfied

compound: N#Cc1cc(-c2ccnc(NC(=O)[C@@H]3C[C@H]3C#N)c2)ccc1OC1CCOCC1 (relative stereo)
systemUnderTest: TBK1 (Homo sapiens, UniProt Q9UHD2)
assignedClass: not satisfied

compound: Cn1cc([C@@H]2C[C@H]2C(=O)Nc2cc(-c3ccc(O[C@H]4CCN(C(=O)[C@@H](O)CO)C[C@H]4F)c(C#N)c3)ccn2)cn1
systemUnderTest: TBK1 (Homo sapiens, UniProt Q9UHD2)
assignedClass: satisfied

compound: C[C@H](N)C(=O)OCC(=O)N1CC[C@H](Oc2ccc(-c3cc(NC(=O)C4CC4)ncn3)cc2C#N)C(F)(F)C1
systemUnderTest: TBK1 (Homo sapiens, UniProt Q9UHD2)
assignedClass: satisfied

* * *

# systemUnderTest: IKKε (Homo sapiens, UniProt Q14164)
# Construct: TBK1 and IKKε were expressed and purified as full length recombinant proteins
# Sequence (Q14164 whole entry): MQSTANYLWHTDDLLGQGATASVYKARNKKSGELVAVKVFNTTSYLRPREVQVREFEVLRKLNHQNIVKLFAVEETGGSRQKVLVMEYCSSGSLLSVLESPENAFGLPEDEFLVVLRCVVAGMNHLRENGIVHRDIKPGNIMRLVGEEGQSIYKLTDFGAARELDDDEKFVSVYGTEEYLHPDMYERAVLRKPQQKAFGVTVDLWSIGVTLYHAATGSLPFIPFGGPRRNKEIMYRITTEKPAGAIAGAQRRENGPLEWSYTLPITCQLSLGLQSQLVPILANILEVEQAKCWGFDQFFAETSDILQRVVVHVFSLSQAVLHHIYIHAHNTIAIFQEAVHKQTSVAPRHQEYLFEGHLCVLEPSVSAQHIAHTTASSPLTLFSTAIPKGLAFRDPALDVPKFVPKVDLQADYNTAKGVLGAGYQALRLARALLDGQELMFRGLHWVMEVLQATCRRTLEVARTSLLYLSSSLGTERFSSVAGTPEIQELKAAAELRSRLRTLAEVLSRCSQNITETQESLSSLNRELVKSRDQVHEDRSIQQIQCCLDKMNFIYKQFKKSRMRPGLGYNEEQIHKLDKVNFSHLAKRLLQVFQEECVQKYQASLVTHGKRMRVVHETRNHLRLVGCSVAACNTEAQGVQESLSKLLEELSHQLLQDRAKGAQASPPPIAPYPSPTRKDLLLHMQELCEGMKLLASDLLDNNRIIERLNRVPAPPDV
# assayInfo: TR-FRET enzymatic activity assay, IKKε; also: full length recombinant IKKε at 0.3 nM
# details: read-out: IKKϵ IC50
Entries and their log10 IC50
readoutLabel: log10 IC50 (log10 of the value in µM)

molecule: N#Cc1cc(-c2ccnc(NC(=O)C3CC3)c2)ccc1OC1CCOCC1
experimentalResult: -0.94
--
molecule: N#Cc1cc(-c2ccnc(NC(=O)[C@@H]3C[C@@H]3F)c2)ccc1O[C@H]1CCN(C(=O)CO)C[C@H]1F
experimentalResult: -1.49
--
molecule: N#Cc1cc(-c2cc(NC(=O)C3CC3)ncn2)ccc1O[C@H]1CCN(C(=O)CO)C[C@H]1F
experimentalResult: -1.27
--
molecule: N#Cc1cc(-c2ccnc(NC(=O)[C@H]3C[C@H]3F)c2)ccc1O[C@H]1CCN(C(=O)CO)C[C@H]1F
experimentalResult: -1.40
--
molecule: N#Cc1cc(-c2cc(NC(=O)[C@@H]3C[C@H]3c3cccnc3)ncn2)ccc1O[C@H]1CCN(C(=O)[C@@H](O)CO)CC1(F)F
experimentalResult: -2.05
--
molecule: N#Cc1cc(-c2ccnc(NC(=O)[C@@H]3C[C@H]3c3ccc(C4CC4)nc3)c2)ccc1O[C@H]1CCN(C(=O)CO)CC1(F)F
experimentalResult: -2.15
--
molecule: Cn1cc([C@H]2C[C@@H]2C(=O)Nc2cc(-c3ccc(O[C@H]4CCN(C(=O)CO)C[C@H]4F)c(C#N)c3)ccn2)cn1
experimentalResult: -1.85
--
molecule: CC1CC1C(=O)Nc1cc(-c2ccc(O[C@H]3CCN(C(=O)CO)C[C@H]3F)c(C#N)c2)ccn1 (some centres unmarked)
experimentalResult: -1.58
--
molecule: N#Cc1cc(-c2ccnc(NC(=O)C3CC3C(F)(F)F)c2)ccc1O[C@H]1CCN(C(=O)CO)C[C@H]1F (some centres unmarked)
experimentalResult: -0.97
--
molecule: Cn1cc([C@@H]2C[C@H]2C(=O)Nc2cc(-c3ccc(O[C@H]4CCN(C(=O)CO)CC4(F)F)c(C#N)c3)ccn2)cn1
experimentalResult: -2.21
--
molecule: Cc1ncc(C(=O)N2CC[C@H](Oc3ccc(-c4cc(NC(=O)C5CC5)ncn4)cc3C#N)[C@H](F)C2)o1
experimentalResult: -0.80
--
molecule: C[C@@H]1C[C@H]1C(=O)Nc1cc(-c2ccc(O[C@H]3CCN(C(=O)CO)C[C@H]3F)c(C#N)c2)ccn1
experimentalResult: -1.36
--
molecule: N#Cc1cc(-c2ccnc(NC(=O)C3(F)CC3)c2)ccc1O[C@H]1CCN(C(=O)CO)C[C@H]1F
experimentalResult: -0.53
--
molecule: N#Cc1cc(-c2ccnc(NC(=O)C3CC3c3nc[nH]n3)c2)ccc1O[C@H]1CCN(C(=O)CO)C[C@H]1F (some centres unmarked)
experimentalResult: -0.45
--
molecule: C[C@H](O)C(=O)N1CC[C@H](Oc2ccc(-c3ccnc(NC(=O)C4CC4)c3)cc2C#N)[C@H](F)C1
experimentalResult: -1.33
